Give measured pKi for each item. Keep answers brief.
Assay: Binding affinity to HCV NS3 protease by spectrophotometry
Set-up: species or system Hepacivirus hominis
Friendly reminder that pKi comes from taking -log10 of the concentration in mol/L.

The recorded pKi for entry C=CCNC(=O)C(=O)C(CCC)NC(=O)[C@@H]1[C@@H]2[C@H](CN1C(=O)[C@@H](NC(=O)N[C@H](COC(=O)NCC(C)C)C(C)(C)C)C1(C)CCCCC1)C2(C)C (stereo partly specified) equals 7.24

The recorded pKi for entry CCNC(=O)OC[C@@H](NC(=O)N[C@H](C(=O)N1C[C@H]2[C@@H]([C@H]1C(=O)NC(CC1CCC1)C(=O)C(N)=O)C2(C)C)C1CCCCC1)C(C)(C)C (stereo partly specified) equals 8.00

The recorded pKi for entry C=CCNC(=O)C(=O)C(CCCC)NC(=O)[C@@H]1[C@@H]2[C@H](CN1C(=O)[C@@H](NC(=O)N[C@H](COC(=O)NCC)C(C)(C)C)C1(C)CCCCC1)C2(C)C (stereo partly specified) equals 7.55

The recorded pKi for entry COC[C@@](C)(CC(C)C)NC(=O)N[C@H](C(=O)N1C[C@H]2[C@@H]([C@H]1C(=O)NC(CC1CCC1)C(=O)C(N)=O)C2(C)C)C1(C)CCCCC1 (stereo partly specified) equals 7.30

The recorded pKi for entry C=CCNC(=O)C(=O)C(CCC)NC(=O)[C@@H]1[C@@H]2[C@H](CN1C(=O)[C@@H](NC(=O)N[C@H](COC(=O)NCC)C(C)(C)C)C1Cc3ccccc3C1)C2(C)C (stereo partly specified) equals 7.48

The recorded pKi for entry C#CCCC(NC(=O)[C@@H]1[C@@H]2[C@H](CN1C(=O)[C@@H](NC(=O)N[C@H](COC(=O)NCC(C)C)C(C)(C)C)C1(C)CCCCC1)C2(C)C)C(=O)C(=O)NCC=C (stereo partly specified) equals 8.05

The recorded pKi for entry C=CCNC(=O)C(=O)C(CCC)NC(=O)[C@@H]1[C@@H]2[C@H](CN1C(=O)[C@@H](NC(=O)N[C@H](COC(=O)NCC1CC1)C(C)(C)C)C1(C)CCCCC1)C2(C)C (stereo partly specified) equals 7.49

The recorded pKi for entry C=CCNC(=O)C(=O)C(CCC)NC(=O)[C@@H]1[C@@H]2[C@H](CN1C(=O)[C@@H](NC(=O)N[C@H](COC(=O)NCC)C1CCCCC1)C1(C)CCCCC1)C2(C)C (stereo partly specified) equals 7.08

The recorded pKi for entry CCNC(=O)OC[C@@H](NC(=O)N[C@H](C(=O)N1C[C@H]2[C@@H]([C@H]1C(=O)NC(CC1CCC1)C(=O)C(N)=O)C2(C)C)C1(C)CCCCC1)C(C)(C)C (stereo partly specified) equals 8.10

The recorded pKi for entry CC(C)(C)NC(=O)N[C@H](C(=O)N1C[C@H]2[C@@H]([C@H]1C(=O)NC(CC1CCC1)C(=O)C(N)=O)C2(C)C)C(C)(C)C (stereo partly specified) [BOCEPREVIR] equals 7.85

The recorded pKi for entry CC(C)(C)OC[C@@H](NC(=O)N[C@H](C(=O)N1C[C@H]2[C@@H]([C@H]1C(=O)NC(CC1CCC1)C(=O)C(N)=O)C2(C)C)C1(C)CCCCC1)C(C)(C)C (stereo partly specified) equals 7.00

---

Test: Drug level in rat liver at 10 mg/kg, po after 6 hrs
Format: ADME, organism-based
Parameters: dose 10 mg/kg, route oral
Settings: read-out: Drug uptake
Give measured concentration at 6 h for each item. Keep answers brief.
Return type: number; implicit unit ng/g.

The recorded concentration at 6 h for entry C#CCCC(NC(=O)[C@@H]1[C@@H]2[C@H](CN1C(=O)[C@@H](NC(=O)N[C@H](COC(=O)NC(C)C)C(C)(C)C)C1(C)CCCCC1)C2(C)C)C(=O)C(=O)NCC=C (stereo not given in full) equals 1110

The recorded concentration at 6 h for entry C#CCCC(NC(=O)[C@@H]1[C@@H]2[C@H](CN1C(=O)[C@@H](NC(=O)N[C@H](COC(=O)NCC(C)C)C(C)(C)C)C1(C)CCCCC1)C2(C)C)C(=O)C(=O)NCC=C (stereo not given in full) equals 750

The recorded concentration at 6 h for entry C#CCCC(NC(=O)[C@@H]1[C@@H]2[C@H](CN1C(=O)[C@@H](NC(=O)N[C@H](COC(=O)NCC1CC1)C(C)(C)C)C1(C)CCCCC1)C2(C)C)C(=O)C(=O)NCC=C (stereo not given in full) equals 581

The recorded concentration at 6 h for entry C=CCNC(=O)C(=O)C(CCC)NC(=O)[C@@H]1[C@@H]2[C@H](CN1C(=O)[C@@H](NC(=O)N[C@H](COC(=O)NC(C)C)C(C)(C)C)C1(C)CCCCC1)C2(C)C (stereo not given in full) equals 808

The recorded concentration at 6 h for entry C#CCCC(NC(=O)[C@@H]1[C@@H]2[C@H](CN1C(=O)[C@@H](NC(=O)N[C@H](COC(=O)NCC)C(C)(C)C)C1(C)CCCCC1)C2(C)C)C(=O)C(=O)NCC=C (stereo not given in full) equals 1110

---

Tested on: Rattus norvegicus
Assay: AUC in rat at 10 mg/kg, po
Format: ADME, organism-based, Plasma
Parameters: dose 10 mg/kg, route oral
Conditions: in vivo
valueType: AUC
Give the figure together with its unit, number first.

The recorded AUC for entry CCNC(=O)OC[C@@H](NC(=O)N[C@H](C(=O)N1C[C@H]2[C@@H]([C@H]1C(=O)NC(CC1CCC1)C(=O)C(N)=O)C2(C)C)C1Cc2ccccc2C1)C(C)(C)C (stereo partly specified) equals 0.3 µM·h

---

Give measured EC90 for each item. Keep answers brief.
Test system: Hepatitis C virus
Experiment: Antiviral activity against HCV replication in human hepatoma cells by replicon assay
Assay type: functional, Hepacivirus hominis
Return type: number; implicit unit µM.

The recorded EC90 with Hepatitis C virus for C=CCNC(=O)C(=O)C(CCCC)NC(=O)[C@@H]1[C@@H]2[C@H](CN1C(=O)[C@@H](NC(=O)N[C@H](COC(=O)NCC)C(C)(C)C)C1Cc3ccccc3C1)C2(C)C (stereo partly drawn) was 0.4

The recorded EC90 with Hepatitis C virus for C#CCCC(NC(=O)[C@@H]1[C@@H]2[C@H](CN1C(=O)[C@@H](NC(=O)N[C@H](COC(=O)NCC)C(C)(C)C)C1(C)CCCCC1)C2(C)C)C(=O)C(=O)NCCC (stereo partly drawn) was 0.2

The recorded EC90 with Hepatitis C virus for CCNC(=O)OC[C@@H](NC(=O)N[C@H](C(=O)N1C[C@H]2[C@@H]([C@H]1C(=O)NC(CC1CCC1)C(=O)C(N)=O)C2(C)C)C1Cc2ccccc2C1)C(C)(C)C (stereo partly drawn) was 0.1

---

Experiment: Binding affinity to HCV NS3 protease by spectrophotometry
Set-up: species or system Hepacivirus hominis
valueType: pKi
Friendly reminder that pKi comes from taking -log10 of the concentration in mol/L.

The recorded pKi for entry C=CCNC(=O)C(=O)C(CCC)NC(=O)[C@@H]1[C@@H]2[C@H](CN1C(=O)[C@@H](NC(=O)NC1(COC(=O)NCC)CCCCC1)C1(C)CCCCC1)C2(C)C (stereo not given in full) equals 6.68

The recorded pKi for entry COC[C@@H](NC(=O)N[C@H](C(=O)N1C[C@H]2[C@@H]([C@H]1C(=O)NC(CC1CCC1)C(=O)C(N)=O)C2(C)C)C1Cc2ccccc2C1)C(C)(C)C (stereo not given in full) equals 7.82

The recorded pKi for entry C#CCCC(NC(=O)[C@@H]1[C@@H]2[C@H](CN1C(=O)[C@@H](NC(=O)N[C@H](COC(=O)NCC)C(C)(C)C)C1(C)CCCCC1)C2(C)C)C(=O)C(=O)NCCC (stereo not given in full) equals 7.80

The recorded pKi for entry C#CCCC(NC(=O)[C@@H]1[C@@H]2[C@H](CN1C(=O)[C@@H](NC(=O)NC1(COC(=O)NCC)CCCCC1)C1(C)CCCCC1)C2(C)C)C(=O)C(=O)NCC=C (stereo not given in full) equals 8.05

The recorded pKi for entry CC(C)(C)[C@H](NC(=O)N[C@H](COCc1ccccc1)C(C)(C)C)C(=O)N1C[C@H]2[C@@H]([C@H]1C(=O)NC(CC1CCC1)C(=O)C(N)=O)C2(C)C (stereo not given in full) equals 6.89

---

Tested on: Hepatitis C virus
Test: Antiviral activity against HCV replication in human hepatoma cells by replicon assay
Type: functional, Hepacivirus hominis
valueType: EC90 (µM)
Return type: number; implicit unit µM.

The recorded EC90 for entry C=CCNC(=O)C(=O)C(CCC)NC(=O)[C@@H]1[C@@H]2[C@H](CN1C(=O)[C@@H](NC(=O)NC1(COC(=O)NCC)CCCCC1)C1(C)CCCCC1)C2(C)C (stereo partly drawn) equals 0.7

The recorded EC90 for entry COC[C@@H](NC(=O)N[C@H](C(=O)N1C[C@H]2[C@@H]([C@H]1C(=O)NC(CC1CCC1)C(=O)C(N)=O)C2(C)C)C1(C)CCCC1)C(C)(C)C (stereo partly drawn) equals 0.4

The recorded EC90 for entry C#CCCC(NC(=O)[C@@H]1[C@@H]2[C@H](CN1C(=O)[C@@H](NC(=O)N[C@H](COC(=O)NCC1CC1)C(C)(C)C)C1(C)CCCCC1)C2(C)C)C(=O)C(=O)NCC=C (stereo partly drawn) equals 0.07

FYI, the data here is from ChEMBL document CHEMBL1138483.
